system: UACC-62 melanoma; test: NCI tumour cell line growth inhibition, 48 h
MEASURED QUANTITY: TGI

State, in one line, measured TGI of N#C/C(C(=S)Nc1ccccc1)=C1/NN=C2c3ccccc3C(=O)NN21 > 100 µM

State, in one line, measured TGI of CC/C(=N/O)c1ccc(Br)s1 > 100 µM

State, in one line, measured TGI of Cc1[nH]c(N=Nc2ccccc2)nc1N=Nc1ccccc1 4.34 µM

State, in one line, measured TGI of COc1ccc2c(c1)CCCc1cn[nH]c1-2 > 100 µM

State, in one line, measured TGI of S=C(/N=c1/sc(Nc2ccccc2)nc2sc3c(c12)CCCC3)Nc1ccccc1 > 62.5 µM

State, in one line, measured TGI of CC1=CC(=O)NP(=O)(Oc2ccc(C)cc2)N1 (stereo unspecified) > 100 µM

State, in one line, measured TGI of Cc1c2c(nn1-c1ccc(S(=O)(=O)/N=C3\SCC(=O)N3C(=O)c3ccccc3)cc1)-c1ccccc1CC2 37.6 µM

State, in one line, measured TGI of NCCc1nc(-c2nc(C(=O)O)cs2)cs1 > 100 µM

State, in one line, measured TGI of O=C1CCC(c2ccccc2)C(O)(C(=O)O)C1 (stereo unspecified) > 100 µM

State, in one line, measured TGI of COc1ccc(-c2c(C#N)c(NC(=S)NC(=O)c3ccccc3)nc3c2CCCC3)cc1OC > 100 µM

State, in one line, measured TGI of O=C(c1ccc(Cl)cc1Cl)N(C(=O)N1CCCCC1)c1ccccc1 > 100 µM

State, in one line, measured TGI of CC[C@H](C)[C@H](NC(=O)[C@H]1CCCCN1C)C(=O)N(C)[C@H](CCc1nc(C(=O)N[C@@H](Cc2ccccc2)C[C@H](C)C(=O)OC)cs1)C(C)C > 25 µM

State, in one line, measured TGI of O=C1NNC(=O)C2C3c4ccccc4C(c4ccccc43)C12 (stereo unspecified) > 100 µM

State, in one line, measured TGI of O=C(CC(=O)N(C(=O)c1ccccc1)c1ccc(Cl)cc1)N/N=C\c1cc(N=Nc2ccccc2Cl)ccc1O > 100 µM

State, in one line, measured TGI of CN1C(NC(=O)c2ccc(Cl)nc2)=NS(=O)(=O)c2cc(Cl)ccc21 > 100 µM

State, in one line, measured TGI of CN(C)C(=S)/N=c1\ss/c(=N\C(=S)N(C)C)n1-c1ccc2c(c1)OCO2 > 100 µM

State, in one line, measured TGI of CCCCNC(=O)NS(=O)(=O)c1ccc(N2N=C(c3ccc(C)cc3C)CC2c2ccc(N(C)C)cc2)cc1 (stereo unspecified) 6.12 µM

State, in one line, measured TGI of C=CCN1C(=O)/C(=C/c2ccccc2)NC1=S > 100 µM

State, in one line, measured TGI of O=P(O)(O)CN1CCN(CP(=O)(O)O)CCN(CP(=O)(O)O)CCN(CP(=O)(O)O)CC1 > 100 µM

State, in one line, measured TGI of CC1=CC(=O)NCCN1C > 100 µM

State, in one line, measured TGI of N#CCCN(c1ccc(/C=C2\N=C(c3ccc(Cl)cc3)OC2=O)cc1)S(=O)(=O)c1ccccc1 > 100 µM

Where do the numbers come from? From PubChem BioAssay (NCI).
